Target: EGFR Exon20ins 770_NPG (Homo sapiens, UniProt P00533, INS770NPG)
Test: In vitro enzymatic assay
QUANTITY: IC50 (nM)
Write the value in nM as a bare number.

Q) Tell me reported IC50 for C=CC(=O)Nc1cc(Nc2nccc(Nc3cc(Cl)c(F)cc3C(C)(C)O)n2)c(OC)cc1N1CC[C@@H](N(C)C)C1 [sunvozertinib] , tested with EGFR Exon20ins 770_NPG (Homo sapiens, UniProt P00533, INS770NPG).
A) 2.1

====

QUANTITY: IC50

Q) Request - read-out IC50 | tested on EGFR (Homo sapiens, UniProt P00533) | compound C=CC(=O)Nc1cc(Nc2nccc(Nc3cc(Cl)c(F)cc3C(C)(C)O)n2)c(OC)cc1N1CC[C@@H](N(C)C)C1
A) < 250 nM
